Sourced from patent US20150315130A1

tested.target: human α7 receptor (Homo sapiens)
Sequence (P36544 23-502): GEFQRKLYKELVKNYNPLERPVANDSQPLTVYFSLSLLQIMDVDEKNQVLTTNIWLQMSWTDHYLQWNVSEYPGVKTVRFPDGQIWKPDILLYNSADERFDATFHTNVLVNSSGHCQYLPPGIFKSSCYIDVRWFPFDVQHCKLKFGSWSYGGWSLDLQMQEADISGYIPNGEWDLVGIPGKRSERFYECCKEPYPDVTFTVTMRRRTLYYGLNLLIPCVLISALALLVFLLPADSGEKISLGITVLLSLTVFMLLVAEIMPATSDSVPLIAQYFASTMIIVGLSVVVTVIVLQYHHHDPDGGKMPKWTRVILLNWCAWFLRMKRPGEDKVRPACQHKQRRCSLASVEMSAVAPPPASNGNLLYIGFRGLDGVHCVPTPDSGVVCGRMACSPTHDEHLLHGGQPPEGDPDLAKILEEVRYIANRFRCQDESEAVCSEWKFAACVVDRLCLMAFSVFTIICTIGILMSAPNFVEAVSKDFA
experiment: α7 NNR flux assay (FDSS calcium flux, Calcium-4 dye, PAM mode with acetylcholine)
recorded.conditions: human α7 receptor stably expressed in rat GH4C1 cells; enhancement of response to 20 μM acetylcholine; % modulation relative to PNU-120596 set to 100%
Entries and their measured pEC50 follow.
pEC50 (log units): -log10 of the concentration in mol/L.

Guide cases for pEC50, answers given:
{"columns": ["substance.smiles", "tested.target", "pEC50"],
 "data": [
  ["O=C(N[C@@H](CO)c1ccc(OCCF)cc1)[C@H]1C[C@@H]1c1ccccc1", "human α7 receptor (Homo sapiens)", 5.82],
  ["O=C(N[C@@H](CCO)c1ccccc1)[C@H]1C[C@@H]1c1ccccc1", "human α7 receptor (Homo sapiens)", 5.31],
  ["O=C(N[C@@H](CO)c1ccc(O)cc1)[C@H]1C[C@@H]1c1cccc(F)c1", "human α7 receptor (Homo sapiens)", 5.42]
]}

Next:
Using known records, supply pEC50 for COc1cccc([C@H](C)NC(=O)[C@H]2C[C@@H]2c2ccccc2)c1 5.52
